Just for reference, paper PMC5820647 is where these values come from.

Assay type: physicochemical
Conditions: 3 cycles freezing at about −20°C and thawing at room temperature, rat plasma; medium QC concentration; n = 6
READOUT: Free-throw 3 times Accuracy (%)

INSERT INTO assay_data (compound, readout, unit_info, experimental_result) VALUES
  ('O=C(O[C@@H]1Cc2c(O)cc(O)cc2O[C@@H]1c1ccc(O)c(O)c1)c1cc(O)c(O)c(O)c1 [Epicatechin gallate, epicatechin gallate]', 'Free-throw 3 times Accuracy', '%', 91.4),
  ('Oc1cc(O)c2c(c1)O[C@H](c1ccc(O)c(O)c1)[C@H](O)C2 [Epicatechin, epicatechin]', 'Free-throw 3 times Accuracy', '%', 111),
  ('O=c1c(O[C@@H]2O[C@H](CO)[C@@H](O)[C@H](O)[C@H]2O)c(-c2ccc(O)c(O)c2)oc2cc(O)cc(O)c12 [Isoquercitrin, isoquercitrin]', 'Free-throw 3 times Accuracy', '%', 96.9),
  ('C[C@@H]1O[C@@H](Oc2c(-c3ccc(O)c(O)c3)oc3cc(O)cc(O)c3c2=O)[C@H](O)[C@H](O)[C@H]1O [Quercetin-3-rhamnoside, quercetin-3-rhamnoside]', 'Free-throw 3 times Accuracy', '%', 93.3),
  ('O=C(O)c1cc(O)c(O)c(O)c1 [Gallic acid, gallic acid]', 'Free-throw 3 times Accuracy', '%', 94.0),
  ('COc1c(O)cc2c(c1O)[C@@H]1O[C@H](CO)[C@@H](O)[C@H](O)[C@H]1OC2=O [Bergeninum, bergenin]', 'Free-throw 3 times Accuracy', '%', 94.0);
